# Test system: HeLa Kyoto
# ASSAY_NOTES: thermal stability score vs G1/S (z-score of summed log2 fold changes over temperatures); higher = more thermally stable than in G1/S
# PROTOCOL_CONDITIONS: cell cycle stage: early G1 (4.5 h after nocodazole release)
What thermal stability score was measured for each of the following?
Answer with the value's number alone.

Prompt: Hello, please tell me recorded thermal stability score for this one: MSALEKSMHLGRLPSRPPLPGSGGSQSGAKMRMGPGRKRDFSPVPWSQYFESMEDVEVENETGKDTFRVYKSGSEGPVLLLLHGGGHSALSWAVFTAAIISRVQCRIVALDLRSHGETKVKNPEDLSAETMAKDVGNVVEAMYGDLPPPIMLIGHSMGGAIAVHTASSNLVPSLLGLCMIDVVEGTAMDALNSMQNFLRGRPKTFKSLENAIEWSVKSGQIRNLESARVSMVGQVKQCEGITSPEGSKSIVEGIIEEEEEDEEGSESISKRKKEDDMETKKDHPYTWRIELAKTEKYWDGWFRGLSNLFLSCPIPKLLLLAGVDRLDKDLTIGQMQGKFQMQVLPQCGHAVHEDAPDKVAEAVATFLIRHRFAEPIGGFQCVFPGC [PPME1]
Completion: -0.13

Prompt: Give recorded thermal stability score. MDLAANEISIYDKLSETVDLVRQTGHQCGMSEKAIEKFIRQLLEKNEPQRPPPQYPLLIVVYKVLATLGLILLTAYFVIQPFSPLAPEPVLSGAHTWRSLIHHIRLMSLPIAKKYMSENKGVPLHGGDEDRPFPDFDPWWTNDCEQNESEPIPANCTGCAQKHLKVMLLEDAPRKFERLHPLVIKTGKPLLEEEIQHFLCQYPEATEGFSEGFFAKWWRCFPERWFPFPYPWRRPLNRSQMLRELFPVFTHLPFPKDASLNKCSFLHPEPVVGSKMHKMPDLFIIGSGEAMLQLIPPFQCRRHCQSVAMPIEPGDIGYVDTTHWKVYVIARGVQPLVICDGTAFSEL [C6ORF89]
Completion: 0.0285

* * *

# System: HeLa Kyoto
# ASSAY_NOTES: thermal stability score vs G1/S (z-score of summed log2 fold changes over temperatures); higher = more thermally stable than in G1/S
# PROTOCOL_CONDITIONS: cell cycle stage: mitosis
Answer each item with its documented thermal stability score.
Note: the reply should be a number with no unit written.

Prompt: Using the record for MSEDEEKVKLRRLEPAIQKFIKIVIPTDLERLRKHQINIEKYQRCRIWDKLHEEHINAGRTVQQLRSNIREIEKLCLKVRKDDLVLLKRMIDPVKEEASAATAEFLQLHLESVEELKKQFNDEETLLQPPLTRSMTVGGAFHTTEAEASSQSLTQIYALPEIPQDQNAAESWETLEADLIELSQLVTDFSLLVNSQQEKIDSIADHVNSAAVNVEEGTKNLGKAAKYKLAALPVAGALIGGMVGGPIGLLAGFKVAGIAAALGGGVLGFTGGKLIQRKKQKMMEKLTSSCPDLPSQTDKKCS [STX17] , state its measured thermal stability score.
Completion: 0.13

Prompt: Check the records and state thermal stability score for `RALGAPA1`
Completion: -0.518

* * *

# System: HeLa Kyoto
# ASSAY_NOTES: solubility change mitosis vs G1/S (difference of NP-40 vs SDS log2 ratios) (log2 ratio difference); higher = more soluble in mitosis
ENDPOINT_NAME: solubility change mitosis (log2)
Output spec: single numeric token, no unit.

Prompt: Give solubility change mitosis (log2) for the following sequence: MAAAVVLAAGLRAARRAVAATGVRGGQVRGAAGVTDGNEVAKAQQATPGGAAPTIFSRILDKSLPADILYEDQQCLVFRDVAPQAPVHFLVIPKKPIPRISQAEEEDQQLLGHLLLVAKQTAKAEGLGDGYRLVINDGKLGAQSVYHLHIHVLGGRQLQWPPG [HINT2]
Completion: -0.0342

Prompt: Entry MGSELIGRLAPRLGLAEPDMLRKAEEYLRLSRVKCVGLSARTTETSSAVMCLDLAASWMKCPLDRAYLIKLSGLNKETYQSCLKSFECLLGLNSNIGIRDLAVQFSCIEAVNMASKILKSYESSLPQTQQVDLDLSRPLFTSAALLSACKILKLKVDKNKMVATSGVKKAIFDRLCKQLEKIGQQVDREPGDVATPPRKRKKIVVEAPAKEMEKVEEMPHKPQKDEDLTQDYEEWKRKILENAASAQKATAE [ORC6] needs its solubility change mitosis (log2) filled in; supply it.
Completion: -0.389

Prompt: Item MDRFLVKGAQGGLLRKQEEQEPTGEEPAVLGGDKESTRKRPRREAPGNGGHSAGPSWRHIRAEGLDCSYTVLFGKAEADEIFQELEKEVEYFTGALARVQVFGKWHSVPRKQATYGDAGLTYTFSGLTLSPKPWIPVLERIRDHVSGVTGQTFNFVLINRYKDGCDHIGEHRDDERELAPGSPIASVSFGACRDFVFRHKDSRGKSPSRRVAVVRLPLAHGSLLMMNHPTNTHWYHSLPVRKKVLAPRVNLTFRKILLTKK [ALKBH2] : provide solubility change mitosis (log2)
Completion: 0.0123
